ASSAY_TARGET: T1, human GFRα3 expressed with a C-terminal mFc tag (human)
T1 construct: also called hGFRα3-mFc
T1 chain: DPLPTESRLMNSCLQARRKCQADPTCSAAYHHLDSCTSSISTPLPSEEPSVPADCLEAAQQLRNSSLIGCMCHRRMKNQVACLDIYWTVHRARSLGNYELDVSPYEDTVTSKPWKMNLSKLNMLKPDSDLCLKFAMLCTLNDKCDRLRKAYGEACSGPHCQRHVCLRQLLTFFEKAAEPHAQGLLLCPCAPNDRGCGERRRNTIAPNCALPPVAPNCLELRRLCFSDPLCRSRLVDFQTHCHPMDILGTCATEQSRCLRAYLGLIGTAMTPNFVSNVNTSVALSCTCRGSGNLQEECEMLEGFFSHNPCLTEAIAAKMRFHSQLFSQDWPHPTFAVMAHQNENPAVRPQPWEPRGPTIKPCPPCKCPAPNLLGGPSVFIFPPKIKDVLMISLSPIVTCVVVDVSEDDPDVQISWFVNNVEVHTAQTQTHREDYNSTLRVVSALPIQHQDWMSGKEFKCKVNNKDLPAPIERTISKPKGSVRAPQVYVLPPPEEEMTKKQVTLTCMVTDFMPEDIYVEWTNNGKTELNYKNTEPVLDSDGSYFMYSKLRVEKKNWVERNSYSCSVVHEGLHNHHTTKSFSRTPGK
MEASUREMENT_NOTES: SPR, Ab captured, 25C
ENDPOINT_NAME: t1/2 (days)
Note: unit days is implicit; provide only the numeric part.

Prompt line: Requested field: t1/2. Item: H4H2293P (antibody, human IgG4, V domains shown, human IgG4 Fc (H4H)) VH: QVQLVESGGGVVQPGRSLRLSCAASGFSFSDYVMHWVRQAPGKGLEWVASIWFDGSNELYADSVKGRFTISRDNSKNTLFLQMNSLRAEDTAVYYCAKKGVLVATSAFHIWGQGTMVTVSS VL: AIQMTQSPSSLSASVGDRVTITCRASQNINNYLNWYHQKPGKAPNLLIYAASSLQSGVPSRFSGSGSGTDYTLTISSLQPEDFGNYYCQQSYSTSMYTFGQGTKLEIK
Response line: 4.16

Prompt line: Requested field: t1/2. Item: H4H2344S (antibody, human IgG4, V domains shown, human IgG4 Fc (H4H)) VH: EVQLVESGGGVVQPGRSLRLSCAASGFSFSDYVMHWVRQAPGKGLEWVASIWFDGSNEFYADSVKGRFTISRDNSKNTLFLQMNSLRAEDTAVYYCAKKGVLVATSAFDIWGQGTMVTVSS VL: DIQMTQSPSSLSASVGDRVTITCRASQSINNYLNWYHQKPGKAPKLLIYAASSLQSGVPSRFSGSGSGTDYTLTISSLQPEDFGNYYCQQSYRTSMYTFGQGTKVEIK
Response line: 5.15
